- Tested on: MDA-MB-468 breast
- MEASUREMENT PROTOCOL: NCI tumour cell line growth inhibition, 48 h
ASSAY ENDPOINT: log10 of TGI (log10 of the value in µM)
Could you please treat all values as log10 of TGI in µM?

Reference set (2 entries):
Cc1cc(C(=O)/C=C/c2ccc[nH]2)ccc1-n1ccc(C(F)(F)F)n1: 1.54
CC[C@@]1(OC(=O)CN(C)C)C(=O)OCc2c1cc1n(c2=O)Cc2cc3c(N)cccc3nc2-1: -1.46

In: Field: log10 of TGI (MDA-MB-468 breast). Entry: CC(C)(C)c1cc(C(=O)Nc2ccc(C(=O)NCCN)cc2)cc(C(C)(C)C)c1
Out: 0.56

In: One more compound: O=C(O)c1cc2ccccc2c2c3c(ccc12)OCO3
Out: 2.66

In: One more compound: CCCOc1cc2ccccc2cc1C(=O)Nc1nc(NC)c2c(ccc3nccc32)[nH]1
Out: 0.00

In: One more compound: CO[C@@H]1CCN(c2nccc(Nc3cc4c(C(C)C)ccc(N5CC(CS(C)(=O)=O)[C@H]5C)c4cn3)n2)C[C@@H]1F (stereo not given in full)
Out: 0.61

In: One more compound: CN(C)C(=O)OCc1nc2c(N3CCOCC3)nc(-c3ccccc3)nc2n1C
Out: 0.26

In: One more compound: COCCOCCOCc1n(Cc2ccc3ccccc3c2)c2ccccc2[n+]1Cc1ccc2ccccc2c1
Out: -0.18

In: One more compound: O=C1Nc2cc(-c3cccc(O)c3)ccc2/C1=C/c1ccc[nH]1
Out: -0.09

In: One more compound: O=C(NCCN1CCCC1)c1ccc(-c2nc3ccc4[nH]ncc4c3c3c2CCCC3)cc1
Out: 0.14

---

- Test system: MDA-MB-468 breast
- MEASUREMENT PROTOCOL: NCI tumour cell line growth inhibition, 48 h; in the data active = GI50 below about 0.43 µM; inactive = the rest
Hi there, use one of these labels in your reply, thanks! active, inactive

Example results:
Cc1cc(-c2nnc(/C=C/c3ccc4c(c3)OCO4)o2)n[nH]1: inactive
O=C1CC[C@H](N2Cc3c(OCc4ccc(CN5CCOCC5)cc4)cccc3C2=O)C(=O)N1: inactive
O=c1c2cc(-c3ccc(F)cc3F)ccc2n(Nc2ccccc2)c(=O)n1-c1cccc(C(F)(F)F)c1: inactive
O=C1Nc2cc(-c3cccc(O)c3)ccc2/C1=C/c1ccc[nH]1: active
COc1cc(Cl)cc(-c2nn(-c3cccc(NC(=O)Nc4cccc(C(F)(F)F)c4)c3)cc2-c2ccncc2)c1: inactive
COCCOCCOCc1n(Cc2ccc3ccccc3c2)c2ccccc2[n+]1Cc1ccc2ccccc2c1: active

In: Identify the outcome logged in this assay for the compound shown: O=S(=O)(NCCNc1nccc(-c2c(-c3ccc(F)c(O)c3)nc3sccn23)n1)c1ccc(Cl)cc1
Out: inactive

In: One more compound: O=C(CSCC(=O)N/N=C/c1ccccc1O)N/N=C\c1ccccc1O
Out: inactive

In: One more compound: O=C(O)c1cc2ccccc2c2c3c(ccc12)OCO3
Out: inactive

In: One more compound: COc1cccc(/C=C/c2nc3c(cnn3-c3ccccc3)c(=O)[nH]2)c1
Out: inactive

In: One more compound: NCCCCCNc1noc(Cc2c[nH]c3cc(Br)ccc23)n1
Out: inactive

In: One more compound: COc1ccccc1[C@H]1C(C(=O)c2ccc(Cl)cc2)C2(N[C@@H]1c1ccccc1)C(=O)Nc1ccc(Cl)cc12 (stereo partly drawn)
Out: inactive

In: One more compound: CCCOc1cc2ccccc2cc1C(=O)Nc1nc(NC)c2c(ccc3nccc32)[nH]1
Out: active

---

- Tested on: MDA-MB-468 breast
- MEASUREMENT PROTOCOL: NCI tumour cell line growth inhibition, 48 h
Below, each of the compounds is paired with its reported TGI value.

Reference set (4 entries):
CCOC(=O)C(Cc1c[nH]c2cc(N(CCO)CCO)ccc12)(NC(C)=O)C(=O)OCC: > 1000 µM
O=C(Nc1cccc(-n2cc(-c3ccncc3)c(-c3ccc(O)c(Cl)c3)n2)c1)c1ccc2c(c1)OCCO2: > 100 µM
O=C1CC[C@H](N2Cc3c(OCc4ccc(CN5CCOCC5)cc4)cccc3C2=O)C(=O)N1: > 100 µM
Cc1nc(-c2cc3ccccc3oc2=O)ccc1C(=O)/C=C/c1ccccn1: > 100 µM

Please turn your attention to the following entry.
In: Tell me the measured TGI of COc1ccc(C(C)c2cc(OC)c(OC)c(OC)c2)cc1 (stereo not given) , please.
Out: > 50 µM
